- Tested on: intracellular amastigotes of L. infantum
- runDescription: Antiamastigote test, L. infantum in mouse peritoneal macrophages
- Assay type: cell-based, Leishmania infantum
- runConditions: Leishmania infantum, Peritoneal macrophage; intracellular amastigotes in mouse peritoneal macrophages, 72 h, infection index, Mean ± SEM; read-out: L. infantum Amastigote IC50
quantity: IC50

# molecule, quantity, readoutValue
records = [
    ("O=C1C2=C(C(=O)c3ccccc31)[C@H]1COc3cc4c(cc3[C@H]1O2)OCO4 [LQB 168 (2d)]", "IC50", "> 50 µM"),
    ("N=C(N)c1ccc(OCCCCCOc2ccc(C(=N)N)cc2)cc1 [Pentamidine, reference compound]", "IC50", "0.4 µM"),
    ("O=C1C2=C(C(=O)c3ccccc31)[C@H]1CCc3ccccc3[C@H]1O2 (relative stereo) [LQB 187 (2a)]", "IC50", "> 25 µM"),
    ("O=C1C2=C(C(=O)c3ccccc31)[C@H]1COc3ccc(Cl)cc3[C@H]1O2 [LQB 236 (2c)]", "IC50", "> 25 µM"),
    ("COc1ccc2c(c1)[C@H]1OC3=C(C(=O)c4ccccc4C3=O)[C@H]1CC2 (relative stereo) [LQB 475 (2f)]", "IC50", "> 40 µM"),
    ("COc1ccc2c(c1)CC[C@@H]1C3=C(O[C@H]21)C(=O)c1ccccc1C3=O (relative stereo) [LQB 474 (2e)]", "IC50", "> 10 µM"),
    ("O=C1C2=C(C(=O)c3ccccc31)[C@H]1COc3ccccc3[C@H]1O2 [LQB 182 (2b)]", "IC50", "3.6 µM"),
]

###

# key: entry, value: pIC50
- Tested on: L. braziliensis promastigotes
- runDescription: Antipromastigote test, L. braziliensis
- Assay type: cell-based
- runConditions: Leishmania braziliensis; 72 h, parasites counted in Neubauer chamber, Mean ± SEM; read-out: L. braziliensis Promastigote IC50
pIC50: −log10 of the molar value.

# compound, experimentalTarget, pIC50
measured = [
    ("O=C1C2=C(C(=O)c3ccccc31)[C@H]1COc3ccc(Cl)cc3[C@H]1O2 [LQB 236 (2c)]", "L. braziliensis promastigotes", 4.75),
    ("N=C(N)c1ccc(OCCCCCOc2ccc(C(=N)N)cc2)cc1 [Pentamidine, reference compound]", "L. braziliensis promastigotes", 4.89),
    ("COc1ccc2c(c1)CC[C@@H]1C3=C(O[C@H]21)C(=O)c1ccccc1C3=O (relative stereo) [LQB 474 (2e)]", "L. braziliensis promastigotes", 4.91),
    ("O=C1C2=C(C(=O)c3ccccc31)[C@H]1COc3ccccc3[C@H]1O2 [LQB 182 (2b)]", "L. braziliensis promastigotes", 4.96),
    ("O=C1C2=C(C(=O)c3ccccc31)[C@H]1CCc3ccccc3[C@H]1O2 (relative stereo) [LQB 187 (2a)]", "L. braziliensis promastigotes", 4.64),
    ("COc1ccc2c(c1)[C@H]1OC3=C(C(=O)c4ccccc4C3=O)[C@H]1CC2 (relative stereo) [LQB 475 (2f)]", "L. braziliensis promastigotes", 4.98),
    ("O=C1C2=C(C(=O)c3ccccc31)[C@H]1COc3cc4c(cc3[C@H]1O2)OCO4 [LQB 168 (2d)]", "L. braziliensis promastigotes", 4.55),
]

###

- runDescription: Macrophage toxicity test (resazurin)
- Type: cell-based, Swiss mice
- runConditions: mouse; peritoneal macrophages of Swiss mice, 72 h, resazurin, Mean ± SEM; read-out: Murine Macrophage CC50

# compound, unitSpec, CC50 at 72 h
records = [
    ("O=C1C2=C(C(=O)c3ccccc31)[C@H]1COc3ccc(Cl)cc3[C@H]1O2", "µM", 43.9),
    ("O=C1C2=C(C(=O)c3ccccc31)[C@H]1COc3ccccc3[C@H]1O2", "µM", 16.9),
    ("O=C1C2=C(C(=O)c3ccccc31)[C@H]1CCc3ccccc3[C@H]1O2 (relative stereo)", "µM", 49.3),
    ("COc1ccc2c(c1)CC[C@@H]1C3=C(O[C@H]21)C(=O)c1ccccc1C3=O (relative stereo)", "µM", 14.9),
    ("O=C1C2=C(C(=O)c3ccccc31)[C@H]1COc3cc4c(cc3[C@H]1O2)OCO4", "µM", 77.7),
    ("N=C(N)c1ccc(OCCCCCOc2ccc(C(=N)N)cc2)cc1 [Pentamidine, reference compound]", "µM", 8.5),
]
